Species on record: Rattus norvegicus
Experiment notes: DrugMatrix - Regimen: Daily Repeat
Type: toxicity, organism-based, Sprague-Dawley
Parameters: regimen Daily Repeat, gender Male, age 6-8 weeks
Study conditions: in vivo, po, 0 mg/kg, 72 h, tissue Plasma, route oral GAVAGE, dose level Control, time 3 day, […]
GLUCOSE overview
Reported property: GLUCOSE (mg/dL)

INSERT INTO measurements (molecule, data_value) VALUES
  ('Cn1cnc([N+](=O)[O-])c1Sc1ncnc2nc[nH]c12', 164),
  ('COc1ccc2c(c1)c(CC(=O)OCC(=O)O)c(C)n2C(=O)c1ccc(Cl)cc1', 152.67),
  ('CC(=O)[C@H]1CC[C@H]2[C@@H]3CCC4=CC(=O)CC[C@]4(C)[C@H]3CC[C@]12C', 164.5),
  ('COC1=CC(=O)C[C@@H](C)[C@]12Oc1c(Cl)c(OC)cc(OC)c1C2=O', 151.83),
  ('CN(C)CCCC1(c2ccc(F)cc2)OCc2cc(C#N)ccc21 (stereo unspecified)', 164.5),
  ('CSc1ccc2c(c1)N(CCC1CCCCN1C)c1ccccc1S2 (stereo unspecified)', 156.67);

###

Organism: Rattus norvegicus
Experiment notes: DrugMatrix - Regimen: Daily Repeat
Format: toxicity, organism-based, Sprague-Dawley
Set-up: regimen Daily Repeat, gender Male, age 6-8 weeks
Study conditions: in vivo, po, 0 mg/kg, 72 h, tissue Blood, route oral GAVAGE, dose level Control, time 3 day, vehicle 100 % WATER
Reported property: MEAN CORPUSCULAR HEMOGLOBIN CONCENTRATION

INSERT INTO results (compound, data_value) VALUES
  ('NC(=O)c1ncn([C@@H]2O[C@H](CO)[C@@H](O)[C@H]2O)n1', '38.65 G/DL'),
  ('CC1COc2c(N3CCN(C)CC3)c(F)cc3c(=O)c(C(=O)O)cn1c23 (stereo not given)', '40.08 G/DL'),
  ('CC(C)(S)[C@@H](N)C(=O)O', '39.03 G/DL'),
  ('Cc1cc(NS(=O)(=O)c2ccc(N)cc2)no1', '39.18 G/DL'),
  ('CC(CCc1ccccc1)NCC(O)c1ccc(O)c(C(N)=O)c1 (stereo not given)', '39.53 G/DL'),
  ('COc1cc2c(N3CCN(C(=O)Nc4ccc(OC(C)C)cc4)CC3)ncnc2cc1OCCCN1CCCCC1', '30.62 G/DL'),
  ('NNC(=O)c1ccncc1', '37.57 G/DL'),
  ('CN1CCN(C(=O)OC2c3nccnc3C(=O)N2c2ccc(Cl)cn2)CC1 (stereo not given)', '39.15 G/DL'),
  ('C[C@]12Cc3c[nH]nc3C[C@@H]1CC[C@@H]1[C@@H]2CC[C@@]2(C)[C@H]1CC[C@]2(C)O', '39.13 G/DL'),
  ('Cn1cnc([N+](=O)[O-])c1Sc1ncnc2nc[nH]c12', '38.98 G/DL'),
  ('COc1cccc(C2(O)CCCCC2CN(C)C)c1 (stereo not given)', '39.13 G/DL'),
  ('CC1(C)S[C@@H]2[C@H](NC(=O)[C@H](N)c3ccc(O)cc3)C(=O)N2[C@H]1C(=O)O', '36.88 G/DL'),
  ('O=C1NC(=O)C(c2ccccc2)(c2ccccc2)N1', '40.65 G/DL'),
  ('Nc1ccc(S(=O)(=O)Nc2ccnn2-c2ccccc2)cc1', '38.7 G/DL'),
  ('CN1CCC[C@H]1c1cccnc1', '40.08 G/DL'),
  ('CNCCC=C1c2ccccc2CCc2ccccc21', '40.65 G/DL'),
  ('Clc1ccc(C(c2ccccc2Cl)C(Cl)Cl)cc1 (stereo not given)', '39.95 G/DL'),
  ('NCC1(CC(=O)O)CCCCC1', '39.85 G/DL'),
  ('Fc1ccc([C@@H]2CCNC[C@H]2COc2ccc3c(c2)OCO3)cc1', '39.13 G/DL'),
  ('COc1ccc(C(CN(C)C)C2(O)CCCCC2)cc1 (stereo not given)', '39.18 G/DL');
